// reported % Increase in life-span (T/C, %) for each item listed
System: Leukemia L-1210 cells
Assay: Antitumor activity against leukemia L-1210 in CDF1 mice, 60-day observation (Test Example 1)
Type: in vivo, mouse
Settings: 0.3 mg/kg/day i.p., 9 days; 60 d observation; '>' = at least one of four mice survived 60 days
Please respond with the number in % and leave the unit unwritten.

Recorded % Increase in life-span (T/C, %), per entry:
| compound.string | % Increase in life-span (T/C, %) |
| --- | --- |
| COc1cccc2c1C(=O)c1c(O)c3c(c(O)c1C2=O)C[C@@](O)(C(=O)CO)C[C@@H]3O[C@@H]1O[C@@H](C)[C@@H](O)[C@@H](O)[C@H]1F | 182 |
| COc1cccc2c1C(=O)c1c(O)c3c(c(O)c1C2=O)C[C@@](O)(C(=O)CO)C[C@@H]3O[C@H]1C[C@H](N)[C@H](O)[C@H](C)O1 | 132 |
| COc1cccc2c1C(=O)c1c(O)c3c(c(O)c1C2=O)C[C@@](O)(C(C)=O)C[C@@H]3O[C@@H]1O[C@@H](C(F)(F)F)[C@@H](O)[C@@H](O)[C@H]1F | 119 |
| COc1cccc2c1C(=O)c1c(O)c3c(c(O)c1C2=O)C[C@@](O)(C(C)=O)C[C@@H]3O[C@H]1C[C@H](N)[C@H](O)[C@H](C)O1 | 112 |

Query string: Query % Increase in life-span (T/C, %) for COc1cccc2c1C(=O)c1c(O)c3c(c(O)c1C2=O)C[C@@](O)(C(C)=O)C[C@@H]3O[C@@H]1O[C@@H](C)[C@@H](O)[C@@H](O)[C@H]1F
Result string: 105

* * *

Catalogue of compounds with associated IC50
System: P388 cells
Test: In vitro inhibition of growth of P388 cells, 72 hours (Test Example 3)
Format: cell-based, mouse
Conditions: Mus musculus; P388, 72 hours; read-out: IC50
Output spec: scalar in ng/mL, unitless text.

| compound.string | IC50, ng/mL |
| --- | --- |
| COc1cccc2c1C(=O)c1c(O)c3c(c(O)c1C2=O)C[C@@](O)(C(C)=O)C[C@@H]3O[C@@H]1O[C@@H](C)[C@@H](O)[C@@H](O)[C@H]1F | 33 |

The record that follows has no IC50 shown yet.
Query string: Consider the compound COc1cccc2c1C(=O)c1c(O)c3c(c(O)c1C2=O)C[C@@](O)(C(=O)CO)C[C@@H]3O[C@@H]1O[C@@H](C)[C@@H](O)[C@@H](O)[C@H]1F . State its measured IC50.
Result string: 3.4

// provenance: patent US5719130A
